Value source: paper PMC6646235

Biological target: As-p18 (Ascaris suum, UniProt P55776)
Construct: mature protein without secretion signal peptide, N-terminal His-tag (pQE-30/As-p18), expressed in E. coli BL21 (DE3); monomer; delipidated by RP-HPLC for NMR, co-purified lipid retained for crystal
Sequence (P55776 21-163): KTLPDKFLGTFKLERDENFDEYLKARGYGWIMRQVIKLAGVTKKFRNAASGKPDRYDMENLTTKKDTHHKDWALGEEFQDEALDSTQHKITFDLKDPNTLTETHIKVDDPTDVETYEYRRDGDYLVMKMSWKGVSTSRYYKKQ
Assay: isothermal titration calorimetry; complex also solved by solution NMR
parameter_measured: pKd
Lab note — pKd values are minus log10 of concentrations in M.

Query :: Query: pKd; subject: CCCCCCCC/C=C\CCCCCCCC(=O)O
Result :: 5.51
